The values you see were collected from paper PMC6904838.

- Test Method Notes: HepG2 cytotoxicity
- Type: cell-based
- Measurement Conditions: human, HepG2 cells (ATCC HB-8065)
Metric: CC50 at 72 h (µM)
// units = µM; emit number, no label

Query: Please indicate CC50 at 72 h recorded for CCCCCCCCCCCCCCCCOP(=O)([O-])OCC[N+](C)(C)C [MTF, Miltefosine]
Reply: 50.4
